# study.target: isolated ABL SH3 domain (Homo sapiens, UniProt P00519)
# Construct: we performed FP assays with the N32L protein as well as the isolated ABL SH3 domain
# Sequence (P00519 61-121 limits assumed): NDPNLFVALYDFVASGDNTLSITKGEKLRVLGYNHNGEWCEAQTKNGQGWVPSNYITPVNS
# measurement.notes: Surface plasmon resonance, isolated SH3 domain
# condition.parameters: SPR, data not shown
pKd: −log10 of the molar value.

{"molecule": "OCCN(CCO)c1nc(N2CCCCC2)c2nc(N(CCO)CCO)nc(N3CCCCC3)c2n1 [compound 142, dipyridamole]", "pKd": 4.52}

----------
# study.target: wild type ABL kinase core (Homo sapiens, UniProt P00519, DEL15-56)
# Construct: ABL core proteins (residues 1–531 with an internal deletion of residues 15–56)
# Sequence (P00519 with tags, fused parts or gaps isoform P00519-2 DEL15-56): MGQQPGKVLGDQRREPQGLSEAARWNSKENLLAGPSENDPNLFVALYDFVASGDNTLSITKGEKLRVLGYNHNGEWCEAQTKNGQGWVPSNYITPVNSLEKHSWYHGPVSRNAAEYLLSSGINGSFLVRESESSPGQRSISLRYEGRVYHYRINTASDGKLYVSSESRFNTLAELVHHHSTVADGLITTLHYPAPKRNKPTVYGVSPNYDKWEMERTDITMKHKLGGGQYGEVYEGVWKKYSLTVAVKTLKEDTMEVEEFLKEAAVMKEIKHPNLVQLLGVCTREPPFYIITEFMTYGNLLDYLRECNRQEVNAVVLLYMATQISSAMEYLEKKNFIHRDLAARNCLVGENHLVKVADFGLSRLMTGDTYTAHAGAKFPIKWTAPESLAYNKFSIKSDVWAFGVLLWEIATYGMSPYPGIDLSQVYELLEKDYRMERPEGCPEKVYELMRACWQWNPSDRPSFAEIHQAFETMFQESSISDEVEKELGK
# measurement.notes: ADP Quest kinetic kinase assay, wild type ABL core
# condition.parameters: 30 min pre-incubation; ATP and substrate at Km; mean ± SE, triplicate; read-out: EC50 for activation of ABL core
experimental.endpoint: EC50 (nM)

{"mol.smiles": "OCCN(CCO)c1nc(N2CCCCC2)c2nc(N(CCO)CCO)nc(N3CCCCC3)c2n1", "readout.units": "nM", "assay.value": 630}

Reference for the values: paper PMC4519180
